Molecular target: MMP-9 (Homo sapiens, UniProt P14780)
Sequence (P14780 94-707): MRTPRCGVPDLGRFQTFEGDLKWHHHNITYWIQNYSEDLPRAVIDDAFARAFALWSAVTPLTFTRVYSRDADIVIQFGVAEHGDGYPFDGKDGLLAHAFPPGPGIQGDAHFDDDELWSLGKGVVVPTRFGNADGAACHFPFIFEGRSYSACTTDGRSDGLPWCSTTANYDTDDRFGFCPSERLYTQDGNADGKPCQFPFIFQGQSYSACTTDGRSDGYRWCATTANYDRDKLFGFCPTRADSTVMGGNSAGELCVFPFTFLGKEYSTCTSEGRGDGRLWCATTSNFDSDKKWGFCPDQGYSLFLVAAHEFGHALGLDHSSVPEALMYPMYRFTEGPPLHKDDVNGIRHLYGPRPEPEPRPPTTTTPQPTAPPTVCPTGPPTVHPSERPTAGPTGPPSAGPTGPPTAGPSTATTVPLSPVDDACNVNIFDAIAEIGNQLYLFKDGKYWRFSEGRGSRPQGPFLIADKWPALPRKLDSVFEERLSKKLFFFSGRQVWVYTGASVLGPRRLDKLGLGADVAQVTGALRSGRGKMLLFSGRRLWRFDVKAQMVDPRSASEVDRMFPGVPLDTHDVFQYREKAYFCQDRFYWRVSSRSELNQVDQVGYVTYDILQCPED
Assay: Inhibition of matrix metalloproteinase, MMP-9
Type: biochemical
Conditions: Table 3 Matrix metalloproteinase
Description: Inhibition of Sirtuins, Matrix Metalloproteinase, Bromodomains was Also Confirmed Using Standard Protocols and the Results are Present in Table 2.
VALUE_TYPE: IC50 (µM)
Value expressed in µM; do not type the unit.

[Q] Which value of IC50 has been reported for COc1cc(-c2cc(=O)c3c(O)cc(O)c(CC=C(C)C)c3o2)ccc1O [FBL-03G] in the records?
[A] 85.4

* * *

test system: HC-1 (Leukemia); assay: WST-1 anticancer cell proliferation assay, HC-1; type: cell-based; conditions: 72 hours
VALUE_TYPE: IC50
# answer = value followed by unit

| COMPOUND | IC50 |
| --- | --- |
| COc1cc(-c2cc(=O)c3c(O)cc(O)c(CC=C(C)C)c3o2)ccc1O [FBL-03G] | 5 µM |

[Q] Which value of IC50 has been reported for COc1cc(-c2cc(=O)c3c(O)c(CC=C(C)C)c(O)cc3o2)ccc1O [FBL-03B] in the records?
[A] 29.7 µM

* * *

Catalogue of IC50 values
Target: c-Kit(D820Y) (Homo sapiens, UniProt P10721, D820Y)
Construct: made in house
Sequence (P10721 26-976 D820Y): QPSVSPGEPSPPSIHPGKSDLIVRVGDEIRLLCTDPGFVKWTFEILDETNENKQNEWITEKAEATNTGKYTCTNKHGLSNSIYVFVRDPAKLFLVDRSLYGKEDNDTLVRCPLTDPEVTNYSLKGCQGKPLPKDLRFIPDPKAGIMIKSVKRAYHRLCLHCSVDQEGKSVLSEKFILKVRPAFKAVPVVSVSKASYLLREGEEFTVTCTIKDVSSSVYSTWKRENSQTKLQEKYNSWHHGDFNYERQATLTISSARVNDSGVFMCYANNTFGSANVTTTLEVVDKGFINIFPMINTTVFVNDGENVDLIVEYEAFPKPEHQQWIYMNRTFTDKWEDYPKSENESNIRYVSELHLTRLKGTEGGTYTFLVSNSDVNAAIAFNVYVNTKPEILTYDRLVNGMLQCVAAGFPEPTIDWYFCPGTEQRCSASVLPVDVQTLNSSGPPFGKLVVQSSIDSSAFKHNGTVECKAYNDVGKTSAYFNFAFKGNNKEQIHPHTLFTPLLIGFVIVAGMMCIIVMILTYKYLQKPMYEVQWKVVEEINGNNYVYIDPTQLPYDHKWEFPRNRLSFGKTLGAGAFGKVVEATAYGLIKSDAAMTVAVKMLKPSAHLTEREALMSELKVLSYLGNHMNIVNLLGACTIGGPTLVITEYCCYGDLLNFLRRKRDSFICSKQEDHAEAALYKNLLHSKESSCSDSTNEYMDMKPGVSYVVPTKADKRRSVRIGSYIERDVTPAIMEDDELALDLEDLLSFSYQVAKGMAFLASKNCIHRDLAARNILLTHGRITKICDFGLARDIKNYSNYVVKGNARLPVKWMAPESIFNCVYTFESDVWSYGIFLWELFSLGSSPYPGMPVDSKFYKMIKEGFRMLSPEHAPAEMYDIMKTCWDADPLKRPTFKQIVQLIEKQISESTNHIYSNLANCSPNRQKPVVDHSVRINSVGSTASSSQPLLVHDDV
Test: Kinase competition binding assay, c-Kit(D820Y)
Conditions: Table 1 kinase panel
Protocol: Cannabis flavonoids and their analogs were subjected to kinase inhibition assay. The compounds were first screened at a single concentration of 10 μM in the primary assay. […]. […] See also, Karaman et al., “A Quantitative Analysis Of Kinase Inhibitor Selectivity”, Nat. […] For most assays, kinases were fused to T7 phage strains (Fabian, supra) and for the other assays, kinases were produced in HEK-293 cells after which they were tagged with DNA for quantitative PCR detection. […]

| COMPOUND | TARGET_OF_ASSAY | READOUT_VALUE |
| --- | --- | --- |
| COc1cc(-c2cc(=O)c3c(O)cc(O)c(C/C=C(\C)CCC=C(C)C)c3o2)ccc1O [FBL-03C] | c-Kit(D820Y) (Homo sapiens, UniProt P10721, D820Y) | > 20000 nM |
| COc1cc(-c2cc(=O)c3c(O)cc(O)c(CC=C(C)C)c3o2)ccc1O [FBL-03G] | c-Kit(D820Y) (Homo sapiens, UniProt P10721, D820Y) | 113 nM |
| COc1cc(-c2cc(=O)c3c(O)c(CC=C(C)C)c(O)cc3o2)ccc1O [FBL-03B] | c-Kit(D820Y) (Homo sapiens, UniProt P10721, D820Y) | 1280 nM |

[Q] Which value of IC50 has been reported for COc1ccc(-c2cc(=O)c3c(O)c(C/C=C(\C)CCC=C(C)C)c(O)cc3o2)cc1OC [FBL-03D] in the records?
[A] > 30000 nM

[Q] Which value of IC50 has been reported for COc1cc(-c2cc(=O)c3c(O)c(C/C=C(\C)CCC=C(C)C)c(O)cc3o2)ccc1O [FBL-03A] in the records?
[A] > 20000 nM

* * *

molecular target: KIT(V559D) (Homo sapiens, UniProt P10721, V559D); construct: made in house; test: Kinase competition binding assay, KIT(V559D); settings: Table 1 kinase panel
Sequence (P10721 26-976 V559D): as the sequence (P10721 26-976 D820Y) above, with V534D, Y795D counted along it
Catalogue of IC50 values

[Q] Which value of IC50 has been reported for COc1ccc(-c2cc(=O)c3c(O)c(C/C=C(\C)CCC=C(C)C)c(O)cc3o2)cc1OC [FBL-03D] in the records?
[A] > 30000 nM

[Q] Which value of IC50 has been reported for COc1cc(-c2cc(=O)c3c(O)c(C/C=C(\C)CCC=C(C)C)c(O)cc3o2)ccc1O [FBL-03A] in the records?
[A] 200 nM

[Q] Which value of IC50 has been reported for COc1cc(-c2cc(=O)c3c(O)cc(O)c(C/C=C(\C)CCC=C(C)C)c3o2)ccc1O [FBL-03C] in the records?
[A] > 1000 nM

[Q] Which value of IC50 has been reported for COc1cc(-c2cc(=O)c3c(O)c(CC=C(C)C)c(O)cc3o2)ccc1O [FBL-03B] in the records?
[A] < 1000 nM

[Q] Which value of IC50 has been reported for COc1cc(-c2cc(=O)c3c(O)cc(O)c(CC=C(C)C)c3o2)ccc1O [FBL-03G] in the records?
[A] < 1000 nM

Every entry's value here was drawn from patent US20180353462A1.
